Data provenance is ChEMBL document CHEMBL4007505.

- Measured Target: Sodium-dependent serotonin transporter (Homo sapiens)
- Sequence (P31645 whole entry): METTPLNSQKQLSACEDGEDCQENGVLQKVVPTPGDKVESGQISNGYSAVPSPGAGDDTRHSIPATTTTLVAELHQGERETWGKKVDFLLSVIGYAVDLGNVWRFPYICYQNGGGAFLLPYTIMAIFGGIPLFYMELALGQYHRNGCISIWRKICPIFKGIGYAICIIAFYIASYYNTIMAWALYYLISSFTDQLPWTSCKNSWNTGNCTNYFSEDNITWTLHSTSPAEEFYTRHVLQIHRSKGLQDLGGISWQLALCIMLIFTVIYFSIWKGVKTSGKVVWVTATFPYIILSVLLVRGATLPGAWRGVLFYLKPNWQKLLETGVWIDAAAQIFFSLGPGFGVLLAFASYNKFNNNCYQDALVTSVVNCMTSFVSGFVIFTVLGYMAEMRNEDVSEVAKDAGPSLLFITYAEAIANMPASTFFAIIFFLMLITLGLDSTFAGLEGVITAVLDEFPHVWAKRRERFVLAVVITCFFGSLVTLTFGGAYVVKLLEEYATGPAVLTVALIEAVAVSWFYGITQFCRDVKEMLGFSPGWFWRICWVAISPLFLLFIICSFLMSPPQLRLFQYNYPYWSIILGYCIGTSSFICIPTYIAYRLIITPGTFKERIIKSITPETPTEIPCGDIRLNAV
- Test Protocol: Inhibition of [125I]RTI-55 binding to recombinant human SERT expressed in HEK293 cell membranes preincubated for 10 mins followed by radioligand addition measured after 90 mins by micro beta scintillation counting analysis
Measured Quantity: Ki

Inquiry: Param readout = Ki; param system = Sodium-dependent serotonin transporter (Homo sapiens); param query = CNc1nc(C#Cc2ccc(Cl)s2)nc2c1ncn2[C@H]1[C@H](O)[C@H](O)[C@]2(C(=O)OCc3ccccc3)C[C@H]12 ; response: value
Reply text: 5.6 µM

* * *

- Measured Target: Sodium-dependent dopamine transporter (Mus musculus, UniProt Q61327)
- Sequence (Q61327 whole entry): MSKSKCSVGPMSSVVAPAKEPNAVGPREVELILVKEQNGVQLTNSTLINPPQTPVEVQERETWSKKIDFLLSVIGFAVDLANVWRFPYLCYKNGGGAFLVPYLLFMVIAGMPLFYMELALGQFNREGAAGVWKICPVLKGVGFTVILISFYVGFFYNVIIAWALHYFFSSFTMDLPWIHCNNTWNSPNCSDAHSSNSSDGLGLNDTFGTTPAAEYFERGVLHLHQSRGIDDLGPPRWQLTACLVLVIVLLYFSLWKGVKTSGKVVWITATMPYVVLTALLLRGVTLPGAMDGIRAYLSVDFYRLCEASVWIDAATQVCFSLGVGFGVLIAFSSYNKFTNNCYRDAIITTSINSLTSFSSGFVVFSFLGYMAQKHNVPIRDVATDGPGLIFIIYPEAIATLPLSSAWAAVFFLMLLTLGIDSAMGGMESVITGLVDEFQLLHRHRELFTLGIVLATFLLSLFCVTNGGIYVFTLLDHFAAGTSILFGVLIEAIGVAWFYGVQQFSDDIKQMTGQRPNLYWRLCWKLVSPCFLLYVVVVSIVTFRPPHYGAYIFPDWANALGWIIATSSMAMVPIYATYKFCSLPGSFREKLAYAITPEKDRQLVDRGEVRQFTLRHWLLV
- Test Protocol: Inhibition of mouse DAT expressed in HEK293 cells assessed as reduction in [3H]-DA uptake
Measured Quantity: pIC50
Convention used: pIC50 is expressed as -log10 of the molar concentration.

Inquiry: # get_value(readout='pIC50', item= CNC(=O)[C@@]12C[C@@H]1[C@@H](n1cnc3c(NC)nc(C#Cc4ccc(Cl)s4)cc31)[C@H](O)[C@@H]2O )
Reply text: 5.37

Others:
Inquiry: # get_value(readout='pIC50', item= COC(=O)[C@H]1[C@@H](OC(=O)c2ccccc2)C[C@@H]2CC[C@H]1N2C [COCAINE] )
Reply text: 6.70

Inquiry: # get_value(readout='pIC50', item= CNc1nc(C#Cc2ccc(Cl)s2)nc2c1ncn2[C@H]1[C@H](O)[C@H](O)[C@]2(C(=O)OC)C[C@H]12 )
Reply text: 6.03

Inquiry: # get_value(readout='pIC50', item= CNC(=O)[C@@]12C[C@@H]1[C@@H](n1cnc3c(NC)nc(C#Cc4ccc(Cl)s4)nc31)[C@H](O)[C@@H]2O )
Reply text: 5.64

Inquiry: # get_value(readout='pIC50', item= CCOC(=O)[C@@]12C[C@@H]1[C@@H](n1cnc3c(NC)nc(C#Cc4ccc(Cl)s4)nc31)[C@H](O)[C@@H]2O )
Reply text: 5.93

Inquiry: # get_value(readout='pIC50', item= CNC(=O)[C@@]12C[C@@H]1[C@@H](n1cnc3c(NC)nc(C#Cc4ccc(Br)s4)nc31)[C@H](O)[C@@H]2O )
Reply text: 5.49
